Below: a set of entries, each annotated with reported IC50.
molecular target: 11β-HSD1 (Homo sapiens)
Sequence (P28845 whole entry): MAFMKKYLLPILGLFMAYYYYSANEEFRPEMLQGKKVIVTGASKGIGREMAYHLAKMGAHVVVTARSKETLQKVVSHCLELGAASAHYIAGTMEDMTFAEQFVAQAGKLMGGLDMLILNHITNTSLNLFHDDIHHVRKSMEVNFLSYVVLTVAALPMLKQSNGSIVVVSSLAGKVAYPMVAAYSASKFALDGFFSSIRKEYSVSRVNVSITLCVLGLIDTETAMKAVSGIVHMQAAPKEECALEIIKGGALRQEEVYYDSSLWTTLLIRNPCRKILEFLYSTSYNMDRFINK

{"columns": ["Compound", "Uom", "IC50"],
 "data": [
  ["O=C1N=C(NC2CCCC2)SC12CCCCC2 [Compound 3h]", "nM", 70],
  ["CC(C)C1SC(NC2CCCC2)=NC1=O (stereo not drawn) [Compound 3d]", "nM", 460],
  ["CC1(C)SC(NC2CCCC2)=NC1=O [Compound 3e]", "nM", 4400]
]}

---

Readings of viability at 20 µM for the listed molecules
tested on: BJ cells; test: MTS metabolic activity assay, BJ cells; type: cell-based; conditions: Homo sapiens, 20 µM, 72 h, read-out: Cell metabolic activity (MTS), % of untreated control
Recorded metric: viability at 20 µM (%)

{"columns": ["Molecule", "Uom", "Val"],
 "data": [
  ["CC1(C)SC(NC2CCCC2)=NC1=O", "%", 109],
  ["O=C1N=C(NC2CCCC2)SC12CCC2", "%", 104],
  ["CCCC1SC(NC2CCCC2)=NC1=O (stereo not drawn)", "%", 99.7],
  ["O=C1N=C(NC2CCCC2)SC12CCCCC2", "%", 106],
  ["CC1SC(NC2CCCC2)=NC1=O (stereo not drawn)", "%", 98.4],
  ["O=C1N=C(NC2CCCC2)SC1c1ccc(Br)cc1 (stereo not drawn)", "%", 97.8]
]}

Values were extracted from paper PMC10139140.
